experimental.target: MDR1 (Homo sapiens (Human), UniProt P08183)
Sequence (P08183 whole entry): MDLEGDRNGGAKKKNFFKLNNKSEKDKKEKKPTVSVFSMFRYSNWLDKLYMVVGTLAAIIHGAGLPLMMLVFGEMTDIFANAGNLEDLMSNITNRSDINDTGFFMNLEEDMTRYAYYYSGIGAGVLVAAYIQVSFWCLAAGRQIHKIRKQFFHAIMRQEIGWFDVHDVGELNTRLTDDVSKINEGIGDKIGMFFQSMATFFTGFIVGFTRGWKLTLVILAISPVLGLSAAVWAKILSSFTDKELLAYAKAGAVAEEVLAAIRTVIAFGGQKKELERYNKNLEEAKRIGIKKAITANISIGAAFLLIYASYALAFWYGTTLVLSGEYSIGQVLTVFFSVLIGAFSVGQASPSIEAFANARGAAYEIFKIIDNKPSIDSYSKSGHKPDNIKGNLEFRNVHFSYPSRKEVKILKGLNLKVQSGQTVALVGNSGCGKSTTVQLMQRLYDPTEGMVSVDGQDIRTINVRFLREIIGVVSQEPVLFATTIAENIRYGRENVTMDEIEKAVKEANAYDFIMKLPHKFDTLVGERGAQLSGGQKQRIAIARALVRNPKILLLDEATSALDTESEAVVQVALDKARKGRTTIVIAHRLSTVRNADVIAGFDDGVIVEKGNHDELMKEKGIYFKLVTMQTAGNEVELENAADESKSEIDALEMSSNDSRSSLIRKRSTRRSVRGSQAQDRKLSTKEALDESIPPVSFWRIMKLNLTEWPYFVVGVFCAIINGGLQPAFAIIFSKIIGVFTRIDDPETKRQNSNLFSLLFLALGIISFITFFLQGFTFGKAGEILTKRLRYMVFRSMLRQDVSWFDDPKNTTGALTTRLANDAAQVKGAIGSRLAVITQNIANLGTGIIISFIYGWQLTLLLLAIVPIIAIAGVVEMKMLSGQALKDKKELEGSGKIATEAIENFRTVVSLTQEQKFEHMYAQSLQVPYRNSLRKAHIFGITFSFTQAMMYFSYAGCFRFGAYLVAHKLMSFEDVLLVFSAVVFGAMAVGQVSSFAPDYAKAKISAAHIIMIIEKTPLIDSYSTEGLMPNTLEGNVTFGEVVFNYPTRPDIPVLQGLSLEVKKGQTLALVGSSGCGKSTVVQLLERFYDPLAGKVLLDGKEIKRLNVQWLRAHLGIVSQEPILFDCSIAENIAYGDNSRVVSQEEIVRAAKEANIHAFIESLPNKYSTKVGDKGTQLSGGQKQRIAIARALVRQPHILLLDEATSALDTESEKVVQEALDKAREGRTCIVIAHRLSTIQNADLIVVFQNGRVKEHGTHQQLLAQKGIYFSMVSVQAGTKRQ
experiment.notes: in vitro
condition.notes: MDCK-MDR1
Counter-ions that a name gives are not always drawn.
metric: efflux ratio at 120 min, 1 μM

| compound | experimental.target | efflux ratio at 120 min, 1 μM |
| --- | --- | --- |
| CC(C)Oc1c(C(=O)Nc2cccn(C3CC3)c2=O)cn2cc(C34COC(C)(C3)C4)nc2c1F [Example 61] | MDR1 (Homo sapiens (Human), UniProt P08183) | 2.8 |
| CC[C@H](C)Oc1nc2nc(C34COC(C)(C3)C4)cn2cc1C(=O)Nc1cccn([C@@H]2C[C@@H]2F)c1=O (mixture of isomers) [Example 42] | MDR1 (Homo sapiens (Human), UniProt P08183) | 10.8 |
| CC[C@H](C)Oc1nc2nc(C34CCC(CF)(C3)OC4)cn2cc1C(=O)Nc1cccn(C2CC2)c1=O (stereo partly shown) [Example 56] | MDR1 (Homo sapiens (Human), UniProt P08183) | 4.1 |
| CC(C)Oc1cc2nc(C34COC(CF)(C3)C4)cn2cc1C(=O)Nc1cccn(C2CC2)c1=O [Example 9] | MDR1 (Homo sapiens (Human), UniProt P08183) | 9.7 |

(I) CC(C)Oc1cc2nc([C@]34CC[C@](CF)(C3)OC4)cn2cc1C(=O)Nc1cccn(C2CC2)c1=O (single isomer, unassigned) [Example 8]
(II) CC(C)Oc1nc2nc([C@]34CC[C@](C)(C3)OC4)cn2cc1C(=O)Nc1cccn([C@H]2C[C@H]2C)c1=O (single isomer, unassigned) [Example 186, trifluoroacetate]
(III) CC(C)Oc1nc2nc(C34CCC(C)(CC3)OC4)cn2cc1C(=O)Nc1cccn(C)c1=O [Comparator 6D, reference compound]
Please put the entries in order of rising efflux ratio at 120 min, 1 μM. Labels, ranked as asked.
III, I, II

----------
experimental.target: IRAK4 (Homo sapiens (Human), UniProt Q9NWZ3)
Sequence (Q9NWZ3 whole entry): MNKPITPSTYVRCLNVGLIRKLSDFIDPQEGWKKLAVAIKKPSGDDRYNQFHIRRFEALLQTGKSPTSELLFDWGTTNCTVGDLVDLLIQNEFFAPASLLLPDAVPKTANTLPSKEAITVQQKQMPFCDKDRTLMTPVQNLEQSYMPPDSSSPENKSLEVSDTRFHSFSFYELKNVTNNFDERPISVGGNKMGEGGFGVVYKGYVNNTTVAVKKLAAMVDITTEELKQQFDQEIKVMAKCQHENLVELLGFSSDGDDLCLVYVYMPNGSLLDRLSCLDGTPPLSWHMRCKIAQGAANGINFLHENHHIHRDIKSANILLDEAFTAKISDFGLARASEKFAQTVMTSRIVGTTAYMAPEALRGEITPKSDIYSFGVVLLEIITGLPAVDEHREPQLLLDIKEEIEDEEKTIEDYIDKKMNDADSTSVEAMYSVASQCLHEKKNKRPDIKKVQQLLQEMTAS
pIC50: −log10 of the molar value. Counter-ions that a name gives are not always drawn.
metric: pIC50

Recorded results for 2 molecules are shown here.
| molecule | experimental.target | pIC50 |
| --- | --- | --- |
| C[C@H]1C[C@H]1n1cccc(NC(=O)c2cn3cc(C45COC(C)(C4)C5)nc3nc2OC2CCC2)c1=O [Example 189, trifluoroacetate] | IRAK4 (Homo sapiens (Human), UniProt Q9NWZ3) | 7.46 |
| COCC12CC(c3cn4cc(C(=O)Nc5cccn([C@H]6C[C@H]6F)c5=O)c(OC5CCC5)nc4n3)(CO1)C2 | IRAK4 (Homo sapiens (Human), UniProt Q9NWZ3) | 9.52 |

(I) CC(C)Oc1cc2nc([C@@]34CC[C@@](C)(C3)OC4)cn2cc1C(=O)Nc1ccn(C)n1 (single isomer, unassigned) [Comparator 3C, reference compound]
(II) CCC(C)Oc1cc2nc([C@@]34CC[C@@](C)(C3)OC4)cn2cc1C(=O)Nc1cccn(C2CC2)c1=O (stereo partly shown)
Please indicate which item has the smaller measured pIC50: I versus II When you have decided, please share the label of that item.
I
(I: 8.64, II: 9.15)

----------
experimental.target: MDR1 (Homo sapiens (Human), UniProt P08183)
experiment.notes: in vitro
condition.notes: MDCK-MDR1
metric: efflux ratio at 120 min, 1 μM

Recorded results for 4 compounds are shown here.
| compound | efflux ratio at 120 min, 1 μM |
| --- | --- |
| C[C@@H](CF)Oc1cc2nc(C34CCC(C)(C3)OC4)cn2cc1C(=O)Nc1cccn(C2CC2)c1=O (mixture of isomers) | 11.1 |
| CC(C)Oc1nc2nc(C34CCC(C)(CC3)OC4)cn2cc1C(=O)Nc1cccn(C2CC2)c1=O | 2.7 |
| CC[C@@H](C)Oc1nc2nc([C@]34CC[C@](C)(C3)OC4)cn2cc1C(=O)Nc1cccn(C2CC2)c1=O | 3.1 |
| CC12CCC(c3cn4cc(C(=O)Nc5cccn(C6CC6)c5=O)c(OC5CCC5)cc4n3)(CO1)C2 (stereo not shown) | 2.8 |

(a) CC(C)Oc1nc2nc([C@@H]3CCCOC3)cn2cc1C(=O)Nc1cccn(C2CC2)c1=O (single isomer, unassigned)
(b) CC(C)Oc1cc2nc([C@]34CC[C@](C)(C3)OC4)cn2cc1C(=O)Nc1ccnn(C2CC2)c1=O
(c) COCC12CC(c3cn4cc(C(=O)Nc5cccn([C@@H]6C[C@@H]6F)c5=O)c(OC(C)C)nc4n3)(CO1)C2
(d) CC12CC(c3cn4cc(C(=O)Nc5cccn([C@H]6C[C@H]6F)c5=O)c(OC5CCC5)cc4n3)(CO1)C2 (single isomer, unassigned)
Please put the entries in order of rising efflux ratio at 120 min, 1 μM. Labels, ranked as asked.
b, a, d, c
(b: 1.4, a: 4, d: 10.9, c: 38.2)

(a) CC(C)Oc1cc2nc(C34COC(C)(C3)C4)cn2cc1C(=O)Nc1cccn([C@@H]2C[C@@H]2C)c1=O
(b) CC(C)Oc1cc2nc(C34COC(C)(C3)C4)cn2cc1C(=O)Nc1cccn([C@@H]2C[C@H]2C)c1=O
Larger number for efflux ratio at 120 min, 1 μM: a , or b ? When you have decided, please share the label of that item.
a
(a: 4.3, b: 3)

(a) CC(C)Oc1cc2nc([C@@]34CC[C@@](C)(C3)OC4)cn2cc1C(=O)Nc1cccn([C@H]2C[C@@H]2C)c1=O (single isomer, unassigned)
(b) CC[C@@H](C)Oc1nc2nc([C@@]34CC[C@@](C)(C3)OC4)cn2cc1C(=O)Nc1cccn(C2CC2)c1=O
Please indicate which item has the smaller measured efflux ratio at 120 min, 1 μM: a versus b When you have decided, please share the label of that item.
a
(a: 1.7, b: 3.2)

----------
experiment.notes: Kinetic solubility assay (CLND), pH 6.8
Format: physicochemical
condition.notes: aqueous buffer, kinetic from dmso stock; potassium phosphate buffer pH 6.8, 2% DMSO, 24 hours at ambient temperature
metric: solubility kinetic at 24 h (µg/mL)

| compound | solubility kinetic at 24 h (µg/mL) |
| --- | --- |
| CC(C)Oc1nc2nc(C[C@@H]3CCOC3)cn2cc1C(=O)Nc1cccn(C2CC2)c1=O (single isomer, unassigned) | 50.2 |
| C[C@]12CC[C@](c3cn4cc(C(=O)Nc5cccn(C6CC6)c5=O)c(OC5CCC5)cc4n3)(CO1)C2 (single isomer, unassigned) | 65.3 |
| CC(C)Oc1nc2nc(C34COC(CF)(C3)C4)cn2cc1C(=O)Nc1cccn(C2CC2)c1=O | 79.3 |

(1) CC(C)Oc1cc2nc(C34COC(C3)C4)cn2cc1C(=O)Nc1cccn(C2CC2)c1=O
(2) CC(C)Oc1cc2nc([C@@]34CC[C@@](C)(C3)OC4)cn2cc1C(=O)Nc1cccn(C2CC2)c1=O (single isomer, unassigned)
(3) CC(C)Oc1cc2nc([C@]34CC[C@](C)(C3)OC4)cn2cc1C(=O)Nc1cccc(C(F)F)n1 (single isomer, unassigned) [Comparator 3A, reference compound]
Please put the entries in order of rising solubility kinetic at 24 h. Labels, ranked as asked.
3, 1, 2
(3: 0.8 µg/mL, 1: 39.2 µg/mL, 2: 57.4 µg/mL)

----------
experimental.target: UniProt:P08183
experiment.notes: in vitro
condition.notes: MDCK-MDR1
metric: efflux ratio at 120 min, 1 μM

| molecule | test.result |
| --- | --- |
| CC(C)Oc1nc2nc(C34COC(C)(C3)C4)cn2cc1C(=O)Nc1cccn([C@@H]2CC2(C)C)c1=O (single isomer, unassigned) | 2.1 |
| C[C@H](CF)Oc1cc2nc(C34COC(C)(C3)C4)cn2cc1C(=O)Nc1cccn(C2CC2)c1=O | 13.6 |
| CC(C)Oc1nc2nc(C34COC(C)(C3)C4)cn2cc1C(=O)Nc1cccn([C@H]2CC2(C)C)c1=O (single isomer, unassigned) | 2.9 |
| O=C(Nc1cccn(C2CC2)c1=O)c1cn2cc(C34COC(C3)C4)nc2cc1OC1CCC1 | 10.2 |

(P) CC12CC(c3cn4cc(C(=O)Nc5cccn([C@H]6C[C@H]6F)c5=O)c(OC5CC5)cc4n3)(CO1)C2
(Q) CC(C)Oc1cc2nc([C@@]34CC[C@@](C)(C3)OC4)cn2cc1C(=O)Nc1cccn([C@H]2C[C@@H]2F)c1=O (single isomer, unassigned)
Please indicate which item has the smaller measured efflux ratio at 120 min, 1 μM: P versus Q When you have decided, please share the label of that item.
Q

----------
experiment.notes: Kpuu assay (in vivo brain-to-plasma unbound partition)
condition.notes: brain (unbound) versus plasma (unbound); intravenous infusion 4 to 24 h; unbound brain/plasma ratio; read-out: Brain Kpu, u
metric: Kpuu (unbound brain-to-plasma partition coefficient)

| compound | test.result |
| --- | --- |
| CC(C)Oc1cc2nc(C34COC(C)(C3)C4)cn2cc1C(=O)Nc1cccn([C@H]2C[C@@H]2F)c1=O (single isomer, unassigned) [Example 155] | 0.36 |
| CC(C)Oc1cc2nc([C@@]34CC[C@@](C)(C3)OC4)cn2cc1C(=O)Nc1ccn(C)n1 (single isomer, unassigned) [Comparator 3C, reference compound] | 0.3 |
| CC(C)Oc1nc2nc(C34COC(C)(C3)C4)cn2cc1C(=O)Nc1cccn([C@H]2C[C@H]2F)c1=O [Example 159] | 0.28 |
| CC12CC(c3cn4cc(C(=O)Nc5cccn(C6CC6)c5=O)c(OC5CCC5)cc4n3)(CO1)C2 [Example 27] | 0.42 |
| CC[C@H](C)Oc1cc2nc(C34COC(CF)(C3)C4)cn2cc1C(=O)Nc1cccn(C2CC2)c1=O (single isomer, unassigned) [Example 15] | 0.41 |
| CC[C@H](C)Oc1nc2nc([C@]34CC[C@](C)(C3)OC4)cn2cc1C(=O)Nc1cccn(C2CC2)c1=O [Example 50] | 0.66 |

(I) CC(C)Oc1nc2nc(C[C@@H]3CCOC3)cn2cc1C(=O)Nc1cccn(C2CC2)c1=O (single isomer, unassigned) [Example 109]
(II) CC(C)Oc1nc2nc(C34COC(C)(C3)C4)cn2cc1C(=O)Nc1cccn(C2CC2(F)F)c1=O (stereo not shown) [Example 84]
(III) CC(C)Oc1c(C(=O)Nc2cccn(C3CC3)c2=O)cn2cc([C@@]34CC[C@@](C)(C3)OC4)nc2c1F (single isomer, unassigned) [Example 67]
Arrange these compounds by their Kpuu (unbound brain-to-plasma partition coefficient), starting with the largest number. Labels, ranked as asked.
III, II, I
(III: 0.96, II: 0.67, I: 0.25)

(I) CC(C)Oc1nc2nc(C34CCC(C)(CC3)OC4)cn2cc1C(=O)Nc1ccn(C)n1 [Comparator 6C, reference compound]
(II) Cc1cnc2c(NC(=O)c3cn4cc(C56COC(C)(C5)C6)nc4cc3OC(C)C)cnn2c1 [Comparator 1B, reference compound]
Larger number for Kpuu (unbound brain-to-plasma partition coefficient): I , or II ? When you have decided, please share the label of that item.
II
